Data credit: patent US7973159B2

// reported pKi per item
biological target: mutated (E4Q, A5T) hMCHR1 receptor (Homo sapiens, UniProt Q99705, A5T/E4Q); assay: Radioligand binding assay for assessment of MCHR1 activity; conditions: membranes from stably transfected HEK-293 cells; competition with [Phe13,[125I]Tyr19]-MCH, 90 min
Sequence (Q99705 whole entry E4Q/A5T): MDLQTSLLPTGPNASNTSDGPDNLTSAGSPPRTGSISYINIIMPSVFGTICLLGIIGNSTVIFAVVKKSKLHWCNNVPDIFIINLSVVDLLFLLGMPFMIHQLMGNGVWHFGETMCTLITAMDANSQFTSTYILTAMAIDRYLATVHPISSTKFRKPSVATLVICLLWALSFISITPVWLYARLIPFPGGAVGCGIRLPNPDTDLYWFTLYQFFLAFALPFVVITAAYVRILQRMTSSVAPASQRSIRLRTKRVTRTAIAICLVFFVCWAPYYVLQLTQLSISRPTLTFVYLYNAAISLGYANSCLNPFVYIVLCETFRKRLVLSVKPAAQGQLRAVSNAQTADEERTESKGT
Expect pKi as a plain number equal to -log10 of the molar concentration.

Below, 2 compounds whose answers are already recorded.
1) COc1cc(-n2nnc3cc(-c4ccc(Cl)cc4)sc3c2=O)ccc1OCC(O)C(F)(F)F (stereo not drawn) [Example 8] | 8.10
2) COc1cc(-n2nnc3cc(-c4ccc(Cl)cc4)sc3c2=O)ccc1OCC(C)O (stereo not drawn) [Example 3] | 8.15

Item: COc1cc(-n2nnc3cc(-c4ccc(Cl)cc4)sc3c2=O)ccc1OCC(O)C1CC1 (stereo not drawn) [Example 5] | System: mutated (E4Q, A5T) hMCHR1 receptor (Homo sapiens, UniProt Q99705, A5T/E4Q) | pKi: 8.00
